System: DMS 273 small cell lung
Assay Remarks: NCI tumour cell line growth inhibition, 48 h
Give TGI for every item shown.

Worked cases, TGI given:
Molecule	TGI
CC(=O)NN1C(=O)C(Cc2ccccc2)c2ccccc21 (stereo not drawn)	> 100 µM
O/N=C/c1ccc(O)c(O)c1	> 100 µM
O=[N+]([O-])c1ccc(-c2csc(=[N+]3CCCCC3)s2)cc1	> 100 µM
N#Cc1cccc(N2C(=O)C3C4C=CC(C3C2=O)C2C(=O)N(c3cccc(C#N)c3)C(=O)C42)c1 (stereo not drawn)	> 31.6 µM
Nc1c2ccccc2nc2c(C(=O)Nc3ccc(S(N)(=O)=O)cc3)cccc12	> 100 µM
COc1ccc2c(c1)CCc1c-2n[nH]c1-c1[nH]nc2c1CCc1cc(OC)ccc1-2	52.8 µM
O=C1NC2C(O)CCCCC2C12CCCCC2 (stereo not drawn)	> 100 µM
COc1cc(N=Nc2ccc(OC)c(S(=O)(=O)O)c2)c(C)cc1N=Nc1ccc(/C=C/c2ccc(N=[N+]([O-])c3ccc(/C=C/c4ccc(N=Nc5cc(C)c(N=Nc6ccc(OC)c(S(=O)(=O)O)c6)cc5OC)cc4S(=O)(=O)O)c(S(=O)(=O)O)c3)cc2S(=O)(=O)O)c(S(=O)(=O)O)c1	> 100 µM

Kindly give each listed record's TGI.
1. CC(C)(C)N=NC(C)(C)N=C=O
2. c1cncc(CSc2nc3ccccc3nc2-c2cccs2)c1
3. CCC1=C(CC2NCCc3ccccc32)CC2c3cc(OC)c(OC)cc3CCN2C1 (stereo not drawn)

[out]
["> 100 µM", "> 100 µM", "3.02 µM"]

Kindly give each listed record's TGI.
1. CNC(=O)CN(CC(=O)O)C(=O)NC
2. CCCCN(CCCC)CC(C(C)=O)C(c1ccccc1)c1c(O)c2ccccc2oc1=O (stereo not drawn)

[out]
> 100 µM
> 100 µM

The reported numbers originate from PubChem BioAssay (NCI).
